ASSAY NAME: Viability qHTS for spleen associated tyrosine kinase inhibitor (SYKi) naive MV4-11 cells (AID 1963823); note: nearly all actives have a fitted effect of over 40% in size
CONDITION LABEL: MV4-11 AML viability, CellTiter-Glo luminescence, 72 h; series mostly up to 45 µM
Experimental: Department of Medicine, Hematology/Oncology University Hospital Frankfurt, Germany. Trials have shown promising clinical activity of the selective SYK inhibitor entospletinib in patients with high expressing HOXA9/MEIS1 acute leukemias. […] 7; Detection; Luminescence; ViewLux plate reader (PerkinElmer). […] 1. Quantitative high-throughput screening (qHTS) of small molecule compounds was conducted on naive SYKi MV4-11 cell line. […] 7. Luminescence was measured on a ViewLux plate reader (PerkinElmer).
Results filed as inconclusive are left out. Activity calls are given as the source filed them. Calls come from the whole dose curve; as a rule, active = well fitted cell-killing curve with a large enough effect; inconclusive = small, poorly fitted or top-dose-only effect, or effect the other way; inactive = no such curve, though single readings can be large or run the other way.
Outcome field: choose from active, inactive

Consider the following illustrative entries.
1) O=C(c1ccccc1)c1ccc2n1CCC2C(=O)O (stereo not given) = inactive
2) COc1cc(C(=O)NCc2ccc(OCCN(C)C)cc2)cc(OC)c1OC = inactive
3) CCOC(=O)OC(C)OC1=C(C(=O)Nc2ccccn2)N(C)S(=O)(=O)c2ccccc21 (stereo not given) = inactive

For Nc1ncnc2c1ncn2[C@H]1CCCO1 , what call appears in the results of this test?
inactive

For CC(C)(O)CC(CO)NC(=O)CC(O)CC(=O)Cc1ccccc1 (stereo not given) , what call appears in the results of this test?
inactive

For O=Cc1ccccc1C=O , what call appears in the results of this test?
inactive

For CCC(C)C1NC(=O)C2CCCN2C(=O)C(C(C)C)NC(=O)c2ccccc2NC(=O)C(Cc2ccc(O)cc2)NC(=O)C(C)NC(=O)C(C(C)O)NC1=O (stereo not given) , what call appears in the results of this test?
inactive

For COc1ccc(/C=C/C(=O)O[C@@H]2[C@@H](O)[C@H](C)O[C@@H](OC3C4C=COC(O[C@@H]5O[C@H](CO)[C@@H](O)[C@H](O)[C@H]5O)C4C4(CO)OC34)[C@@H]2O)cc1OC (stereo not given in full) , what call appears in the results of this test?
inactive

For CC(=O)C1CCC2C3CCC4=CC(=O)CCC4(C)C3CCC12C (stereo not given) , what call appears in the results of this test?
active

For Cc1cccc(C#Cc2cc(F)cc(C#N)c2)n1 , what call appears in the results of this test?
inactive

###

SUBJECT OF TEST: Cytochrome P450 3A7 (Homo sapiens)
ASSAY NAME: Cytochrome P450 family 3 subfamily A member 7 (CYP3A7) small molecule antagonists: luciferase biochemical qHTS assay (AID 1963596); note: nearly all actives have a fitted effect of over 40% in size
CONDITION LABEL: P450-Glo CYP3A7 enzyme luminescence, 1 h; series mostly up to 57.4 µM
Inconclusive results are not listed. The source made the active and inactive calls. The call rests on the fitted dose curve; in most records, active means well fitted inhibition curve with a large enough effect; inconclusive means small, poorly fitted or top-dose-only effect; inactive means no such curve, though single readings can be large or run the other way. Where a SMILES comes first, the peptide text is derived from it. [ ]: non-standard residue; d: D form. The star is where a group is joined. Sta = CC(C)C[C@H](N)[C@@H](O)CC(=O)O; Isovaleryl = CC(C)CC(=O)*
Outcome field: choose from 1 for active, 0 for inactive

Consider the following illustrative entries.
1) Cc1cc(NC(=O)C2=C(O)c3ccccc3S(=O)(=O)N2C)no1 = 0
2) CCCCNC(=O)NS(=O)(=O)c1ccc(N)cc1 = 0
3) COc1ccccc1OCC(O)COC(N)=O (stereo not drawn) = 0
4) Cc1ccc(NC(=O)Nc2cc(C(F)(F)F)ccc2F)cc1Nc1ccc2c(c1)NC(=O)/C2=C\c1ccc[nH]1 = 0
5) C[C@@H]1C[C@H]2[C@@H]3CCC4=CC(=O)C=C[C@]4(C)[C@@]3(F)[C@@H](O)C[C@]2(C)[C@@]1(O)C(=O)COC(=O)c1ccncc1 = 1

For CCCCCC/C=C\CCCCCCCc1cccc(O)c1C(=O)O , what call appears in the results of this test?
0

For Cc1c(N)cccc1C(F)(F)F , what call appears in the results of this test?
0

For c1ccc(-n2cnnn2)cc1 , what call appears in the results of this test?
0

For COc1ccc(CN(CCN(C)C)c2ncccn2)cc1 , what call appears in the results of this test?
0

For Cc1nc2n(c(=O)c1CCN1CCC(c3noc4cc(F)ccc34)CC1)CCCC2 , what call appears in the results of this test?
0

For CC(=O)Nc1ccccc1 , what call appears in the results of this test?
0

For CCCc1c2oc(C(=O)O)cc(=O)c2cc2c(=O)cc(C(=O)O)n(CC)c12 , what call appears in the results of this test?
0

For C[C@H]1c2cccc(O)c2C(O)=C2C(=O)[C@]3(O)C(O)=C(C(N)=O)C(=O)[C@@H](N(C)C)[C@@H]3[C@@H](O)[C@@H]21 , what call appears in the results of this test?
0

For O=C(NC1CCN(CC(F)(F)F)CC1)c1ccc(-c2cccc(F)c2)nc1 , what call appears in the results of this test?
0

For CC(C)CC(=O)N[C@H](C(=O)N[C@H](C(=O)N[C@@H](CC(C)C)[C@@H](O)CC(=O)N[C@@H](C)C(=O)N[C@@H](CC(C)C)[C@@H](O)CC(=O)O)C(C)C)C(C)C (Isovaleryl-VV[Sta]A[Sta]-OH) , what call appears in the results of this test?
0

For N=C(N)n1cccn1 , what call appears in the results of this test?
0
